pIC50 values by entry
- study system: Nonstructural protein 3 (Zika virus)
- assay notes: Functional biochemical assay to identify treatments for viral infectious disease that targets Zika NS2B-NS3 protease. Utilizing a direct enzyme activity measurement method, reading the fluorescence intensity is used to characterize the relative potency of inhibitors as IC50.
- Parameters: species or system PRVABC59
pIC50: −log10 of the molar value.
measured property: pIC50

>>> result_value("O=C(Nc1cc(Cl)cc(C(=O)Nc2ccc(N3CCNCC3)c(F)c2)c1)OCc1ccccc1")
4.80
>>> result_value("CC(C)c1ccc([C@@H](NC(=O)OCc2ccccc2)C(=O)Nc2cccc(CN)c2)cc1")
4.06
>>> result_value("CCOCC1(c2nc3c(C(=O)Nc4ccc5c(c4)CNC5)cc(F)cc3[nH]2)CC1")
6.86
>>> result_value("O=C(Nc1ccc2c(c1)CNC2)c1cc(Br)cc2[nH]c([C@H]3CCOC3)nc12")
6.58
>>> result_value("CCc1cc(C(=O)Nc2ccc3c(c2)CNC3)cc2cn[nH]c12")
5.79
>>> result_value("NCc1cccc(NC(=O)c2cc(Cl)cc3[nH]ncc23)c1")
6.05

###

- study system: Nonstructural protein 3 (Zika virus)
- assay notes: Functional biochemical assay to identify treatments for viral infectious disease that targets Zika NS2B-NS3 protease. Utilizing a direct enzyme activity measurement method, reading the fluorescence intensity is used to characterize the relative potency of inhibitors as IC50. Synthetic construct has been made based on Zika virus (strain PRVABC59) by Centre for Medicines Discovery, University of Oxford, and the assay has been performed by Enamine biological services, Bienta Ltd.The protocol is publicly available: dx.doi.org/10.17504/protocols.io.36wgqn273gk5/v1
pIC50: −log10 of the molar value.
measured property: pIC50

>>> result_value("NCc1csc2cc(C(=O)Nc3ccc4c(c3)CNC4)ccc12")
6.67
>>> result_value("CC(=O)N[C@]1(C)C(=O)Nc2cc(F)cc(C(=O)Nc3ccc4c(c3)CNC4)c21")
5.43

###

- study system: Nonstructural protein 3 (Zika virus, UniProt A0A024AXB9)
- Sequence (A0A024AXB9 whole entry): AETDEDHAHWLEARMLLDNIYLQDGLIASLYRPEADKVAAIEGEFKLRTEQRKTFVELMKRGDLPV
- assay notes: Functional biochemical assay to identify treatments for viral infectious disease that targets Zika NS2B-NS3 protease. Utilizing a direct enzyme activity measurement method, reading the fluorescence intensity is used to characterize the relative potency of inhibitors as IC50.
- Set-up: species or system PRVABC59
pIC50: −log10 of the molar value.
measured property: pIC50

>>> result_value("CC(C)O[C@]1(C)C(=O)Nc2cc(F)cc(C(=O)Nc3ccc4c(c3)CNC4)c21")
5.90
>>> result_value("Clc1ccc2c(CN3CCC(c4c[nH]c5ncccc45)CC3)c[nH]c2c1")
4.60
>>> result_value("O=C(Nc1ccc2c(c1)CNC2)c1cc(Cl)nc2[nH]ncc12")
5.81
>>> result_value("Cc1[nH]c2c(C(=O)Nc3ccc4c(c3)CNC4)cccc2c1C")
5.92

###

- study system: Nonstructural protein 3 (Zika virus, UniProt A0A024AXB9)
- assay notes: Functional biochemical assay to identify treatments for viral infectious disease that targets Zika NS2B-NS3 protease. Utilizing a direct enzyme activity measurement method, reading the fluorescence intensity is used to characterize the relative potency of inhibitors as IC50.
- Design: species or system PRVABC59
pIC50: −log10 of the molar value.
measured property: pIC50

>>> result_value("c1ccc(OC2CCN(Cc3c[nH]c4ccccc34)CC2)cc1")
"< 4.00"
>>> result_value("NCc1cccc(NC(=O)C[C@H](NC(=O)OCc2ccccc2)c2ccc(Br)cc2)c1")
4.31
>>> result_value("NCc1cc(CO)cc([C@H]2C[C@@H]2c2cc(Cl)cc(NC(=O)OCc3ccccc3)c2)c1")
4.98
>>> result_value("O=C(O)c1cc(Cl)ccc1S(=O)(=O)Nc1ccc(F)c(N2CCNC2=O)c1")
"< 4.00"
>>> result_value("NCc1cccc(NC(=O)[C@H]2c3ccc(Br)cc3CCN2C(=O)OCc2ccccc2)c1")
4.27
>>> result_value("O=C(O)c1cc(Cl)ccc1NS(=O)(=O)c1ccc(OCc2ccccn2)cc1")
"< 4.00"
>>> result_value("CC1=NN(c2ccc(NS(=O)(=O)c3ccc(Cl)cc3C(=O)O)cn2)C(=O)C1")
"< 4.00"
>>> result_value("O=C(O)c1cc(Cl)ccc1S(=O)(=O)NC1CCN(S(=O)(=O)Cc2ccccc2)CC1")
"< 4.00"
>>> result_value("Cc1nccn1-c1ccc(NS(=O)(=O)c2ccc(Cl)cc2C(=O)O)cc1F")
"< 4.00"
>>> result_value("Cc1ccc(C(=O)N[C@H](C(=O)Nc2cccc(CN)c2)c2ccc(OCc3ccccc3)cc2)s1")
4.22
>>> result_value("NC[C@H]1C[C@@H](NC(=O)c2cc(Cl)ccc2NS(=O)(=O)c2ccc(Oc3ccccc3Cl)cc2)C1")
"< 4.00"
>>> result_value("c1ccc(COC2CCN(Cc3c[nH]c4ccccc34)CC2)cc1")
"< 4.00"
>>> result_value("NCc1cccc(NC(=O)[C@H](NC(=O)OCc2ccccc2)C2CCN(C3CCCC3)CC2)c1")
"< 4.00"
>>> result_value("O=C(O)c1cc(Cl)ccc1NS(=O)(=O)c1ccc(Oc2ccccc2Cl)cc1")
4.45
>>> result_value("O=C(Nc1cc(Cl)cc(C(=O)NC[C@@]23CN[C@H](CCO2)C3)c1)OCc1ccccc1")
"< 4.00"
>>> result_value("Cc1nnsc1Cn1ccc(Br)n1")
"< 4.00"
>>> result_value("NCCCc1ccnc(NC(=O)c2csc(C3CC3)n2)c1")
"< 4.00"
>>> result_value("Cc1cccc(-c2ccc([C@@H](NC(=O)OCc3ccccc3)C(=O)Nc3cccc(CN)c3)cc2)c1")
5.13
>>> result_value("O=C(Nc1cc(-c2cccnc2)ccn1)c1cn2c(n1)CCC2")
"< 4.60"
>>> result_value("Cc1oc(C2CC2)nc1C(=O)Nc1cc(CCCN)ccn1")
"< 4.00"
>>> result_value("O=Cc1ccc(N2CCC(C(=O)Nc3ccc(Br)cc3O)CC2)cc1")
4.17

meta.source: ChEMBL document CHEMBL5604062
